Value source: patent US20230374132A1

# systemTested: T1, human CD3E&G complex (Sino Biological Inc., CT041-H0305H) (human, UniProt P07766 23-126; P09693 23-116)
# T1 construct: bought heterodimer; also called human CD3E&G antigen
# T1 sequence (P07766 23-126, chain 1 of 2): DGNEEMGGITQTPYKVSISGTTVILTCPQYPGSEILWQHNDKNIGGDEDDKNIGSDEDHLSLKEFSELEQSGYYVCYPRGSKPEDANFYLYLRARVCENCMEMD
# T1 sequence (P09693 23-116, chain 2 of 2): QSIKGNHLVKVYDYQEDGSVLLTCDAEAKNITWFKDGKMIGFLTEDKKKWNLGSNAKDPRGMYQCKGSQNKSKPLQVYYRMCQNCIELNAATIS
# test: BLI, antibody on sensor
Some binders, each annotated with its measured kon.
endpointName: kon (M⁻¹ s⁻¹)

binder | result
hzsp34.101 (antibody, human IgG1, lambda, L234A L235A, V domains shown, CDR mutant of hzsp34.24; IgG1 L234A L235A, lambda) VH: EVQLVESGGGLVQPGGSLKLSCAASGFTFNTYAMNWVRQASGKGLEWVGRIRSKYNNYATYYADSVKDRFTISRDDSKSTLYLQMNSLKTEDTAVYYCARHGNFGQSAASWFAYWGQGTTVTVSS VL: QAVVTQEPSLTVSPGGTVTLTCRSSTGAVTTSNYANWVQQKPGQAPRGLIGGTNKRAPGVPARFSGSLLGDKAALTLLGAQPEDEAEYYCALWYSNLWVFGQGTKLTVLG | 148000
hzsp34.103 (antibody, human IgG1, lambda, L234A L235A, V domains shown, CDR mutant of hzsp34.24; IgG1 L234A L235A, lambda) VH: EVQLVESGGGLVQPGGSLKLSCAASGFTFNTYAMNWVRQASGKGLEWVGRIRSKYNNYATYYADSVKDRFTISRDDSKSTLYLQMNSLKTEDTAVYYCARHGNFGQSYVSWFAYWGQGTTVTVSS VL: QAVVTQEPSLTVSPGGTVTLTCRSSTGAVGTSNYANWVQQKPGQAPRGLIGGTNKRAPGVPARFSGSLLGDKAALTLLGAQPEDEAEYYCALWYSNLWVFGQGTKLTVLG | 253000
hzsp34.116 (antibody, human IgG1, lambda, L234A L235A, V domains shown, CDR mutant of hzsp34.24; IgG1 L234A L235A, lambda) VH: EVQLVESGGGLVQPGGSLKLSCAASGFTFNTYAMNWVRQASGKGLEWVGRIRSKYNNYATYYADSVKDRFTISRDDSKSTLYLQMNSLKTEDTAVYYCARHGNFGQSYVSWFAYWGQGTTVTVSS VL: QAVVTQEPSLTVSPGGTVTLTCRSSTGAVTTSNYANWVQQKPGQAPRGLIGGTNSRAPGVPARFSGSLLGDKAALTLLGAQPEDEAEYYCALWYSDLWVFGQGTKLTVLG | 179000
sp34 (antibody, human IgG1, lambda, L234A L235A, V domains shown, mouse variable regions on human IgG1 L234A L235A and lambda constant regions; also called chimeric antibody sp34; mouse sp34) VH: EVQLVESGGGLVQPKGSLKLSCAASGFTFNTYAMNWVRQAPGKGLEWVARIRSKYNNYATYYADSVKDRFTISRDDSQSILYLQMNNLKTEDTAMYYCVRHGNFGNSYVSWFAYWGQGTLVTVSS VL: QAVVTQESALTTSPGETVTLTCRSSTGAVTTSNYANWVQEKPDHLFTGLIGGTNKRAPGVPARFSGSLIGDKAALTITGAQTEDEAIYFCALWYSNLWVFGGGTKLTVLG | 240000
hzsp34.92 (antibody, human IgG1, lambda, L234A L235A, V domains shown, CDR mutant of hzsp34.24; IgG1 L234A L235A, lambda) VH: EVQLVESGGGLVQPGGSLKLSCAASGFTFNTYAMNWVRQASGKGLEWVGRIRSKYNNYATYYADSVKDRFTISRDDSKSTLYLQMNSLKTEDTAVYYCARHGNFGQRYVSWFAYWGQGTTVTVSS VL: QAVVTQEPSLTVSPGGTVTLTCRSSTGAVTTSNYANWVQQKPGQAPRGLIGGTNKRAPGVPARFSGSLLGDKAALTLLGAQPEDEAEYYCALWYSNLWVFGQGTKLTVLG | 210000
